src = the supplement of paper PMC6555819

Test system: THRa:RXRa (NR concentration 90 nM, RXRa partner concentration 90 nM)
test_protocol: PBM binding z-score (relative to random genomic background probes); higher = stronger binding; sequences stand for … in GC…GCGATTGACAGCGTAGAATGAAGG
measurement_name: PBM binding z-score
I'd appreciate a reply containing only the number, no unit.

Challenge: Would you mind telling me what PBM binding z-score value was observed for ATCTCTAGGTAAAGATAGTTCAATGAATGCAAAT ?
Response given: 1.05

Challenge: Would you mind telling me what PBM binding z-score value was observed for CAAACTAGGTCATCGGAAGGTCAAAGTCCGCATG ?
Response given: 4.2

Challenge: Would you mind telling me what PBM binding z-score value was observed for TCTAGCAGGCCAGAGGGTCAGTCAAGAGGTACGG ?
Response given: 0.734

Challenge: Would you mind telling me what PBM binding z-score value was observed for TCATATAGGTAAAAGGTGAACGTCGGTGTGGTAA ?
Response given: 1.84

Challenge: Would you mind telling me what PBM binding z-score value was observed for CAAACTAGGTCACACAGGTCAAAGTCCGTGCGTA ?
Response given: 4.13

Challenge: Would you mind telling me what PBM binding z-score value was observed for TCATATAGGTAAAGCTGAAAGTCGAACGATATGA ?
Response given: -0.286

Challenge: Would you mind telling me what PBM binding z-score value was observed for TCGTGTAGGTTACCAATGGGGCATTCAGCTTTCT ?
Response given: 0.276

Challenge: Would you mind telling me what PBM binding z-score value was observed for TTACCAAGGTGAGCTGATGTCGTTGATCCAACTC ?
Response given: 1.48

Challenge: Would you mind telling me what PBM binding z-score value was observed for TAGCCTAGGTCATGCGGGCCAGTAAAGTGTCGGC ?
Response given: 2.98

Challenge: Would you mind telling me what PBM binding z-score value was observed for GCACACAGGTGAAACGCAGGTAACTCAGGGTGGC ?
Response given: 1.47

Challenge: Would you mind telling me what PBM binding z-score value was observed for CCTCGTAGGACAACAGGAGGTCAGAGCTGCCAGA ?
Response given: 2.51

Challenge: Would you mind telling me what PBM binding z-score value was observed for CAAACTAGGGCACGAAAGGTCAAAGTCGAATGAC ?
Response given: 4.84

Challenge: Would you mind telling me what PBM binding z-score value was observed for ACTAGCAGGCCAAGGGTCACTCAAGATTAGTCCG ?
Response given: 2.65

Challenge: Would you mind telling me what PBM binding z-score value was observed for GTACCAAGGTGAATAGGTCGTTGCTGAGTAGGCG ?
Response given: 1.8

Challenge: Would you mind telling me what PBM binding z-score value was observed for TTACGAAGGTGAAGGTCGTTGATCCCTCTGTAGA ?
Response given: 1.52

Challenge: Would you mind telling me what PBM binding z-score value was observed for TAACCAAGGTGAGCTGAGGTCGTTGATCCAACTC ?
Response given: 4.65

Challenge: Would you mind telling me what PBM binding z-score value was observed for ACTAGTTGGTCAGCTGAGGTCACAGACAATTCGG ?
Response given: 4.99

Challenge: Would you mind telling me what PBM binding z-score value was observed for CCTCGGAGGACAGAAGGTCAGGGCTGTCCGCTTT ?
Response given: 2.35

Challenge: Would you mind telling me what PBM binding z-score value was observed for ACAGACAGTTGATGAAGGTAACTCAGGCTATCAT ?
Response given: 0.764

Challenge: Would you mind telling me what PBM binding z-score value was observed for GCTAGTTGGTCAGTAAAACGTCACACACCGGTCG ?
Response given: -0.444

Challenge: Would you mind telling me what PBM binding z-score value was observed for TCTCGGAGGACCCGAAGGTCAGAGCTTTCCAGAG ?
Response given: 1.62

Challenge: Would you mind telling me what PBM binding z-score value was observed for CTTACTGGGCCACGAAAGGTCATTGATTCAGTGA ?
Response given: 4.12

Challenge: Would you mind telling me what PBM binding z-score value was observed for TCTAGTTGGTCAAAGGTCACATACTCGAAATGCG ?
Response given: 3.89

Challenge: Would you mind telling me what PBM binding z-score value was observed for GCGACTGGGGCATCAGCAGGTTACCATGACTTAA ?
Response given: 0.654

Challenge: Would you mind telling me what PBM binding z-score value was observed for GCTCGGAGGACCAGGTCAGAGCTTTGTCCGTAGA ?
Response given: 1.73

Challenge: Would you mind telling me what PBM binding z-score value was observed for AGAACGAAGGCAATGAGTTGATAGCACGGGTGGC ?
Response given: -0.732

Challenge: Would you mind telling me what PBM binding z-score value was observed for ATCTCTAGGTAAAGTTCAGTGAGAGATCGATAGA ?
Response given: 1

Challenge: Would you mind telling me what PBM binding z-score value was observed for TAGCCTAGGTCATGGGACAGTATACCACGCGAAC ?
Response given: 3.35

Challenge: Would you mind telling me what PBM binding z-score value was observed for ATACCGAGGTGATCGTGAGGTCGTTGATACTAAC ?
Response given: 3.52

Challenge: Would you mind telling me what PBM binding z-score value was observed for TGAATGAGGATATAAGATCAGGGAACGTTGCAAA ?
Response given: 0.534

Challenge: Would you mind telling me what PBM binding z-score value was observed for TCTGGCAGGCCAGAGGGTCACTCAAGAGGTACGG ?
Response given: 1.62

Challenge: Would you mind telling me what PBM binding z-score value was observed for AGTTAAAGTTCACTAGGTAACGTAAGATTCAGCT ?
Response given: 1.92

Challenge: Would you mind telling me what PBM binding z-score value was observed for CTCGAAAGGTCGTGCTCAGGAGAGTATACCAAAC ?
Response given: 2.64

Challenge: Would you mind telling me what PBM binding z-score value was observed for TCGAGTAGGTTAGTCGGGGCATTAAGCCAACATA ?
Response given: 1.02

Challenge: Would you mind telling me what PBM binding z-score value was observed for GCTGCTAGGTCAACTGATGGTCAGCTTAAGCTCG ?
Response given: 3.07

Challenge: Would you mind telling me what PBM binding z-score value was observed for CCGACTGAGGCATAAGGTTACCATAAGCCAGCCC ?
Response given: 2.07

Challenge: Would you mind telling me what PBM binding z-score value was observed for CGAACTAGGTCATTGACAGGACTGTGAATAGTAA ?
Response given: 2.49

Challenge: Would you mind telling me what PBM binding z-score value was observed for ATAATGAGGTTAAGATCAGGGAAACAGAATACAT ?
Response given: 2.74

Challenge: Would you mind telling me what PBM binding z-score value was observed for CGTCCAAGGTCAGAGGAGGTCAGTGAAGACAGAT ?
Response given: 5.09

Challenge: Would you mind telling me what PBM binding z-score value was observed for GCGACTGGGGCATCAGCAGGTTACCTTAACTTAA ?
Response given: 1.8

Challenge: Would you mind telling me what PBM binding z-score value was observed for TTTGCTAGGTCAGTTGGTCAGCTAACGAGCTGCC ?
Response given: 1.42

Challenge: Would you mind telling me what PBM binding z-score value was observed for GCTAGCAGGCCATTAGGGTCACTCAATGACGGGC ?
Response given: 3.37

Challenge: Would you mind telling me what PBM binding z-score value was observed for CAAACTAGGTCACGAAAGGTTAAAGTCGAATGAC ?
Response given: 4.67

Challenge: Would you mind telling me what PBM binding z-score value was observed for CGTGCTAGGTCATGGTCAGCTAATCTACAGTATG ?
Response given: 3.12

Challenge: Would you mind telling me what PBM binding z-score value was observed for CCAGACCGGTGAGAAGGTAACTCAGCCTCGATTA ?
Response given: -0.0126

Challenge: Would you mind telling me what PBM binding z-score value was observed for CGAACTAGGTCAAGGATAGTGAATCTCCGCACGC ?
Response given: 2.67

Challenge: Would you mind telling me what PBM binding z-score value was observed for CCAACTGGGCCACGAAAGGTCATTGATTCAGTGA ?
Response given: 3.69

Challenge: Would you mind telling me what PBM binding z-score value was observed for TCTGCTAGGTCAGTTGGTCATCTAACGAGCTGCC ?
Response given: 1.63

Challenge: Would you mind telling me what PBM binding z-score value was observed for CGTCCAAGGTCAATGCTAGGTCAGTAAAAGCATT ?
Response given: 4.28

Challenge: Would you mind telling me what PBM binding z-score value was observed for CTACCAAGGTGAACAAGGTCGTTAATTACTATTC ?
Response given: 3.19
